- Test system: M14 melanoma
- method description: NCI tumour cell line growth inhibition, 48 h
observation type: TGI

Measured TGI, CN1CCc2c3n(c4cc(Br)ccc24)[C@H](O)CCCC31 (stereo partly specified) : 3.24 µM

// sample `Cc1ccc2c(c1)C(=O)N(N(C)C)CC(=O)N2` , its TGI was > 100 µM

Given item `O=[N+]([O-])c1ccc(C[P+](c2ccccc2)(c2ccccc2)c2ccccc2)cc1` , the value recorded as its TGI is > 100 µM

Summary for this compound, `COC12C=C/C(=C(/C(=O)OCc3cncnc3)C(=O)CCCCCCCCC3(OC)C=C/C(=C(/C(=O)OCc4cncnc4)C(=O)CCCCCCCC1)O3)O2` : TGI is 1.61 µM

TGI reading for `CCOC(=O)c1cc(=O)c2ccnc3c2n1CCS3` : > 100 µM

Reported TGI for `Oc1c(-c2nnc(-c3ccccc3Cl)o2)sc2nnc(-c3ccccc3)c(-c3ccccc3)c12` was 39.3 µM

Lab book: TGI of `C=C(CN1C(=O)CN(C)C1=O)c1ccc(C(=O)Nc2ccccc2N)cc1` noted as > 100 µM

Lab note: measured TGI of CN1CC[C@]23c4c5ccc(O)c4O[C@H]2C(O)CC[C@@]3(O)[C@H]1C5 (stereo partly specified) was > 100 µM

Measured TGI of `O=C1N(C2CCCCC2)CC12CCCCC2` : > 100 µM

TGI reported for this compound `CCCCCCCCNc1cc2c3c(c1)CCCN3CCC2` : 13.6 µM

TGI for `CCN(C(=O)N[C@@H](Cc1ccccc1)C(=O)N[C@@H](CC(C)C)C(=O)OC)c1ccccc1` is 21.9 µM

Form field TGI, entry BrC1=CCC23CC=C(Br)[C@H]4CC2(COC3)C[C@@H]1O4 (stereo partly specified) : > 100 µM

Input `N#C[C@@H](c1nc2ccccc2s1)c1ncccc1[N+](=O)[O-]` . Output TGI: > 31.6 µM

The compound listed as `O=[N+]([O-])C(=C(Nc1ccccc1)Nc1ccccc1)/C(Cl)=C(\Cl)[N+](=O)[O-]` shows TGI equal to 16.8 µM

The reported TGI of the compound CCOC(=O)C12CCCC1(O)N(NC(=O)OC(C)(C)C)C(C)=C2C(=O)OC (stereo unspecified) was > 100 µM

# compound `CN(/N=C/c1cccc2cccnc12)c1ccc([N+](=O)[O-])cc1[N+](=O)[O-]` ; its TGI = > 94.4 µM

Recorded result, `N.N.N.N.N.NC(=O)c1nn[n-]n1.[Cl-].[Co+3]` , TGI: > 100 µM

Measured TGI of COC(=O)/C=C\COCC1C2CCC(=O)C21 (stereo unspecified) : > 25 µM

GET /value?item= `NS(=O)(=O)c1ccc(-n2nc(-c3ccc(Cl)cc3)cc2-c2cc(O)ccc2O)cc1` &field=TGI returns 17.4 µM

Value of measured TGI for the entry `COc1cc(Br)c(C=Nc2cccc3cc(OC)c(OC)cc23)cc1OC` : > 100 µM

Measured TGI, `O=C(NCCCCNc1cccccc1=O)OCc1ccccc1` : > 100 µM

====

- Test system: TK-10 renal
- method description: NCI tumour cell line growth inhibition, 48 h
Where a SMILES comes first, the peptide text is derived from it. [ ]: non-standard residue; d: D form. pGlu = O=C1CC[CH](C(=O)O)N1
observation type: GI50

For this compound ( `N.N.N.N.N.NC(=O)c1nn[n-]n1.[Cl-].[Co+3]` ), measured GI50 is > 100 µM

The reported GI50 of the compound CCNC(=O)C1CCCN1C(=O)C(CCCN=C(N)N)NC(=O)C(CC(C)C)NC(=O)C(CC(C)C)NC(=O)C(Cc1ccc(O)cc1)NC(=O)C(CO)NC(=O)C(Cc1c[nH]c2ccccc12)NC(=O)C(Cc1cnc[nH]1)NC(=O)C1CCC(=O)N1 (centres undefined) ([pGlu]HWSYLLRP-NHEt; configuration not given here) was > 100 µM

The reported GI50 of the compound `O.O.[NH-]C1(C(=O)O)CCCC1.[NH-]C1(C(=O)O)CCCC1.[Ni+2]` was > 100 µM

Data point: CN(O)C(=O)SCC(NC(=O)CCC(N)C(=O)O)C(=O)NCC(=O)O (centres undefined) ; GI50 = > 2000 µM

// GI50 value for `CCCCON(OC(=O)c1ccc2ccccc2c1)C(=O)c1ccccc1` : > 100 µM

For record `COC12C=C/C(=C(/C(=O)OCc3cncnc3)C(=O)CCCCCCCCC3(OC)C=C/C(=C(/C(=O)OCc4cncnc4)C(=O)CCCCCCCC1)O3)O2` the listed GI50 is 0.689 µM

Data point: `N=C1C(c2nc3ccccc3s2)=C(O)CN1c1ccc(F)c(Cl)c1` ; GI50 = 22.7 µM

Lab note: CC1(C)C2CCC13C(=O)C1OC3(C2)C2C(=O)c3cc4ccccc4cc3C(=O)C12 (centres undefined) gave GI50 of 12.9 µM

The recorded GI50 for `Cc1nnn[n-]1.N.N.N.N.N.[Cl-].[Co+3]` is > 100 µM

Reported GI50 of `O=C(Oc1cccc(F)c1OC(=O)c1cccc(O)c1)c1cccc(O)c1` : 98.6 µM

So for `C=CCN=c1sc2c(n1NC(=O)c1cc3ccc1CCc1ccc(cc1)CC3)C(=O)c1ccccc1C2=O` , the logged GI50 turned out to be 4.48 µM

GI50 measured on `CN(CCO)CC[C@H](CSc1ccccc1)Nc1ccc(S(=O)(=O)NC(=O)c2ccc(N3CCC([C@@H](O)c4ccccc4-c4ccc(Cl)cc4)CC3)cc2)cc1S(=O)(=O)C(F)(F)F` = 5.2 µM

For record `N.N.N.N.[Co+3].[N-]=[N+]=[N-].[N-]=[N+]=[N-].[N-]=[N+]=[N-]` the listed GI50 is > 100 µM

The recorded GI50 for `O=C1C(Cl)=C(Nc2cccc(Cl)c2)C(=O)N1Cc1ccc(Cl)cc1` is 3.37 µM
